Would you kindly list IC50 for each of these molecules?
# test target: dipeptidyl peptidase IV (Homo sapiens, UniProt P27487)
# Sequence (P27487 whole entry, species assumed): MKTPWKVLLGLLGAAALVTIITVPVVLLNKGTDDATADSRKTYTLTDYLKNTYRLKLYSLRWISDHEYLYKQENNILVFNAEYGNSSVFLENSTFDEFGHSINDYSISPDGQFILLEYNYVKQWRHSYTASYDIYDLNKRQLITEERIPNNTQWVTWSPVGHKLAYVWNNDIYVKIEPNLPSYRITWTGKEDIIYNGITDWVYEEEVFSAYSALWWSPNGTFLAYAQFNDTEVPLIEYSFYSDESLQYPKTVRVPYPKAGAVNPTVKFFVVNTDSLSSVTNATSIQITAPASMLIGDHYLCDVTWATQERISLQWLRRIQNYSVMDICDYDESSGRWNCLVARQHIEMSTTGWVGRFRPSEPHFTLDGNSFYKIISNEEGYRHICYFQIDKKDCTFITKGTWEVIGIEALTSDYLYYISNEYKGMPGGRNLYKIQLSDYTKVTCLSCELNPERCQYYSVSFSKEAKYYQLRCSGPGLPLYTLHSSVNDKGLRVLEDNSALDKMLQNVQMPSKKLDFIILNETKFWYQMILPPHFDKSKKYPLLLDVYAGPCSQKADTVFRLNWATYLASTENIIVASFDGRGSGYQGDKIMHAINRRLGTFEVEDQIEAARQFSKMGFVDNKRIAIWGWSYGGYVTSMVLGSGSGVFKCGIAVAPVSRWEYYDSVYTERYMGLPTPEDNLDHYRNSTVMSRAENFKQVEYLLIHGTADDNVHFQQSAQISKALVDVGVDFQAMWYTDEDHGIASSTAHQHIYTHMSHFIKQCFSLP
# assay text: biochemical
# experimental parameters: values marked with "*" are ID50 values; read-out: IC50DPIV, values marked with "*" = ID50
Please give a number only; it is taken to be in µM.

Field request: IC50 | item: O=C(Nc1cccc(/N=C/c2cc(/N=N\c3ccccc3Cl)ccc2O)c1)c1ccco1 [D14.002] 2.5

Field request: IC50 | item: `CCOC(=O)c1c(NC(=O)CSc2nc(=O)cc(N)n2-c2cccc(C)c2)sc2c1CCC2` 363

Field request: IC50 | item: CC12NCC(c3ccccc3)CC1O2 (stereo not shown) 96.6

Field request: IC50 | item: CCOC(=O)CC(N)c1ccc(OC)cc1 (stereo not shown) 83.3

Field request: IC50 | item: `CCCn1c(N2CCN(CC(=O)Nc3c(C(=O)OCC)[nH]c4ccc(F)cc34)CC2)nc2c1c(=O)[nH]c(=O)n2C` 69.8

Field request: IC50 | item: `O=C(N/N=C/c1ccccc1O)c1cc(-c2ccc3ccccc3c2)n[nH]1` 255

Field request: IC50 | item: `COc1cc(/C=N/NC(=O)c2ccccc2[N+](=O)[O-])cc(OC)c1OC` 241

Field request: IC50 | item: Cc1ccc(C(=O)NC(NC(=S)Nc2sc3c(c2C(N)=O)CCCC3)C(Cl)(Cl)Cl)cc1 (stereo not shown) 169

Field request: IC50 | item: CN(C)c1ccc(N2CC(C)(C)C2=O)cc1 [D1.001] 1.2

Field request: IC50 | item: `O=C(CCCOc1ccc(Cl)cc1Cl)N/N=C1/C(=O)Nc2ccc(Br)cc21` 204

Field request: IC50 | item: `N#C/C(=C\c1ccc(N2Cc3ccccc3C2)cc1)C(=O)NCc1ccco1` 456

Field request: IC50 | item: `COc1ccc(N2C(=O)CSCC2=O)cc1OC` 3.1

Field request: IC50 | item: `Cc1ccc(OCC(=O)N/N=C/c2c(Br)cc(Br)c(O)c2Br)c(Br)c1` 101

Field request: IC50 | item: O=C(Nc1ccccc1CC(=O)N1CCCNCC1)c1cccnc1Sc1ccccc1 [D1.002] 1.4

Field request: IC50 | item: CS(=O)(=O)N1CCN(c2ccc([N+](=O)[O-])c(NCc3ccc(Cl)cc3)c2)CC1 [D5.053] 361

Field request: IC50 | item: Cc1ccccc1NC(=O)c1cc2c3c(c1)C1C=CCC1CN3CC1CC=CC21 (stereo not shown) 279

Field request: IC50 | item: CC1(C)NCC(c2ccccc2)CC1O (stereo not shown) 96.2

Field request: IC50 | item: COc1ccc(/C=C2\C(=O)N(c3ccccc3)C3=C2C(c2ccc(Br)cc2)N(c2ccccc2)C3=O)cc1 (stereo not shown) 198

Field request: IC50 | item: `O=C(COc1c(O)cc(Br)cc1Br)N/N=C/c1ccc(O)c(O)c1` 177
